# System: L1210 leukemia ip in BDF1 mice, survival T/C
# experiment.notes: NCI In Vivo Anticancer Drug Screen. Data for tumor model L1210 Leukemia (intraperitoneal) in B6D2F1 (BDF1) mice
# setup.conditions: endpoint: mean survival time; dose: 200.0 mg/kg/injection; schedule: Q01DX001 (ip); vehicle: saline with Tween-80; higher = longer survival
Inconclusive results and toxic doses are left out.
T/C for assorted compounds

Need T/C, item `CN(C)c1ccc(CNc2cccc([N+](=O)[O-])c2)cc1` 90 % of control

Need T/C, item `Cc1cc(C)c(NC(=O)c2cc(C(=O)O)c(C(=O)Nc3c(C)cc(C)cc3C)cc2C(=O)O)c(C)c1` 98 % of control

Need T/C, item `O=C(Nc1cccc2c(NC(=O)c3ccccc3)cccc12)c1ccccc1` 91 % of control

Need T/C, item `C=Cn1nnnc1N` 93 % of control

Need T/C, item `CC(C)(C)C(=O)NCc1ccccc1` 96 % of control

Need T/C, item `CCOC(=O)C(CCCO)C(=O)OCC` 96 % of control

* * *

# Tested on: L1210 leukemia ip in BDF1 mice, survival T/C
# experiment.notes: NCI In Vivo Anticancer Drug Screen. Data for tumor model L1210 Leukemia (intraperitoneal) in B6D2F1 (BDF1) mice
# setup.conditions: endpoint: mean survival time; dose: 50.0 mg/kg/injection; schedule: Q01DX009 (ip); vehicle: Klucel (hydroxypropylcellulose) (HPC); higher = longer survival
Toxic doses and inconclusive results are not listed.
observable: T/C

Some entries whose results are on file:
Need T/C, item `O=Ic1ccccc1` 98 % of control

Need T/C, item `CNC(=O)OCc1c(COC(=O)NC)c(-c2ccc(Cl)c(Cl)c2)n2c1CCC2` 124 % of control

Need T/C, item `O=C(NNc1ccccc1)OCCCl` 107 % of control

Next:
Need T/C, item CC(C)C(CCN1CCCC1)(C(N)=O)c1cccc2ccccc12 (stereo unspecified) 112 % of control

Need T/C, item CN1C(=S)SC(c2ccccc2)N(C)C1c1ccccc1 (stereo unspecified) 101 % of control

Need T/C, item `O=C1c2ccccc2C(=O)N1c1cccc([N+](=O)[O-])c1` 114 % of control

Need T/C, item `Cc1cccc(NC(=O)Nc2cccc3ccccc23)c1C` 96 % of control

Need T/C, item CCOC(=O)C(C)CC(C)(C(=O)OCC)C(=O)OCC (stereo unspecified) 93 % of control

Need T/C, item `COc1ccc(N=Cc2ccc(C=Nc3ccc(OC)cc3)cc2)cc1` 90 % of control

Need T/C, item `COc1cc(N=O)ccc1O` 106 % of control

Need T/C, item `COc1ccc([N+](=O)[O-])cc1NC(=O)Nc1ccccc1C(N)=O` 105 % of control

Need T/C, item `N#Cc1nc2c(n(O)c1=N)CCC/C2=C\c1ccccc1` 103 % of control

Need T/C, item `c1ccc(C(c2ccccc2)[Si](c2ccccc2)(c2ccccc2)C(c2ccccc2)c2ccccc2)cc1` 90 % of control

Need T/C, item `CC1=N/C(=C/c2ccccc2Cl)C(=O)O1` 93 % of control

Need T/C, item `COc1ccc(S(=O)(=O)NC(=O)NCC=C(C)C)cc1` 98 % of control

Need T/C, item Cc1cccc(OCC(O)CN2CCN(c3ccccc3)CC2)c1 (stereo unspecified) 104 % of control

Need T/C, item CCCCCCCCCCCCCCC(F)C(=O)O (stereo unspecified) 96 % of control

Need T/C, item `Cc1ccc([PH+](c2ccc(C)cc2)c2ccc(C)cc2)cc1.Cc1ccc([PH+](c2ccc(C)cc2)c2ccc(C)cc2)cc1.[Cl][Hg][Cl]` 86 % of control

Need T/C, item `Cc1ccc(C)c(NC(=O)Oc2ccc(Cl)cc2Cl)c1` 100 % of control

Need T/C, item `O=C(Nc1ccc(CCO)cc1)Nc1cc([N+](=O)[O-])ccc1Cl` 91 % of control

Need T/C, item `[Cl][Ge]([Cl])([c]1ccccc1)[c]1ccccc1` 96 % of control
